Here the recorded pIC50 is given for each entry.
- targetEntity: Fatty Acid Synthase Keto-reductase Domain (FASN KR) (Homo sapiens, UniProt P49327)
- Sequence (P49327 whole entry, the tested form may be a part): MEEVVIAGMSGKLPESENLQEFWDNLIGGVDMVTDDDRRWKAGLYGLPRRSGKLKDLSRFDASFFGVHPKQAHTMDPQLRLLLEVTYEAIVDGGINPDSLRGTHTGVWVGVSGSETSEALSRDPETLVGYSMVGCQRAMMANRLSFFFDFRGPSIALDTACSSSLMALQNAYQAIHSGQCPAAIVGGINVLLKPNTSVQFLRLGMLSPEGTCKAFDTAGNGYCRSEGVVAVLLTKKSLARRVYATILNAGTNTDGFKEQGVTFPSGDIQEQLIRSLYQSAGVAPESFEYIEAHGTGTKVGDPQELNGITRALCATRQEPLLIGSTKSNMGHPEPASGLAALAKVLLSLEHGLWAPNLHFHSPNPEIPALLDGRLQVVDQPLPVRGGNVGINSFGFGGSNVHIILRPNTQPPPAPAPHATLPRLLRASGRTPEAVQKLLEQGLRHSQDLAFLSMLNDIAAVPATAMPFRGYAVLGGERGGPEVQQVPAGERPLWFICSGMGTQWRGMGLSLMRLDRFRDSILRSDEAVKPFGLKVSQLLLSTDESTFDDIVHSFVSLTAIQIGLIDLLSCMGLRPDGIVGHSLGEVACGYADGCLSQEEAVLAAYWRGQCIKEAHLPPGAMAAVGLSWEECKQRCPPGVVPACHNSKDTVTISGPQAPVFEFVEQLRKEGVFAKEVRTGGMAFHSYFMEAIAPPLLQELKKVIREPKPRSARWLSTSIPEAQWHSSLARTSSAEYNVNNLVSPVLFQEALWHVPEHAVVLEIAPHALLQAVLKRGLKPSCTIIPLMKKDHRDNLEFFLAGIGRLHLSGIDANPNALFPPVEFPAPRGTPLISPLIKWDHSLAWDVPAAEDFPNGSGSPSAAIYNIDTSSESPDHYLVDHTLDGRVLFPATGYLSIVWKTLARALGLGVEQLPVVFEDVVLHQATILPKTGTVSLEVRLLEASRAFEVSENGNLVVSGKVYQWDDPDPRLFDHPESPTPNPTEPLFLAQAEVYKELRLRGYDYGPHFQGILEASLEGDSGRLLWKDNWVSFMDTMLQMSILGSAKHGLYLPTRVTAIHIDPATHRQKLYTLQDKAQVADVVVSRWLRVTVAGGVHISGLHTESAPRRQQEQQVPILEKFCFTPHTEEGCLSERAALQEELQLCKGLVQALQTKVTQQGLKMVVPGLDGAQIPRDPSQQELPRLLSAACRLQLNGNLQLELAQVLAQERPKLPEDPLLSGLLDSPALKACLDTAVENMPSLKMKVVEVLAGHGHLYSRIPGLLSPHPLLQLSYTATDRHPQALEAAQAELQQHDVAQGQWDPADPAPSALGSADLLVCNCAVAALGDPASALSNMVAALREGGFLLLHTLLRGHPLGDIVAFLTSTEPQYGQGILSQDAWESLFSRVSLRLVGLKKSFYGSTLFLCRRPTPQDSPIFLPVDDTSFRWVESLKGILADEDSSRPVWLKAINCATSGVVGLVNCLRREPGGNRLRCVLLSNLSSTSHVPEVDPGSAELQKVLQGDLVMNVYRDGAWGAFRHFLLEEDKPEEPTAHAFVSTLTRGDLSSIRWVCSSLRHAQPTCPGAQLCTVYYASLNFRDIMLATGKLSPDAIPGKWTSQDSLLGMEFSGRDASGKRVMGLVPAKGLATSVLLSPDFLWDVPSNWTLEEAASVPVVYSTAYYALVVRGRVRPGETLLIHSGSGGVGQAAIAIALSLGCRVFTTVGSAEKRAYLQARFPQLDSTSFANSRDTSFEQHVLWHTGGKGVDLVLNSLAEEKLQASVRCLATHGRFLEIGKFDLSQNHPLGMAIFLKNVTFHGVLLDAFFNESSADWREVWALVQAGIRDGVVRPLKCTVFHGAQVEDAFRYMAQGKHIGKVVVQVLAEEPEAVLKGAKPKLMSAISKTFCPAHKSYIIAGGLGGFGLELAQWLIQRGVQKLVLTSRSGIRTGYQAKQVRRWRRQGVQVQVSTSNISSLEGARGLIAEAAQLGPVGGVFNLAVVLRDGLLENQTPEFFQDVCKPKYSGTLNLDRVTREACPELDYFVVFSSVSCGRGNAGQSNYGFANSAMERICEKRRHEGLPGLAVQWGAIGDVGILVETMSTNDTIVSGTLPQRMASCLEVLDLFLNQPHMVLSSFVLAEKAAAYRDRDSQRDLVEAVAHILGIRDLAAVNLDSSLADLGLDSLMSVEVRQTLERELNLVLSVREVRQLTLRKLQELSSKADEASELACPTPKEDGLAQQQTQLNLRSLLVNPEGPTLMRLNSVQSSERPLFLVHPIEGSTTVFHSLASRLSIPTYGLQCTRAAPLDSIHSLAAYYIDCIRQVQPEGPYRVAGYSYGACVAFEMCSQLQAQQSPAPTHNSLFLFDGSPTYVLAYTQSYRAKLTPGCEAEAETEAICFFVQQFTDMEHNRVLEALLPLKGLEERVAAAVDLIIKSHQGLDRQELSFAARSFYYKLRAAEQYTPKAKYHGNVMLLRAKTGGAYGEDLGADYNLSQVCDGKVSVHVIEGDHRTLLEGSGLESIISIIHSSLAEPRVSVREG
By convention, pIC50 is the negative base-10 log of a molar concentration.

Cc1cc(-c2cccc(NS(=O)(=O)C3CC3)c2)ccc1C1=NC2(CC2)C(=O)N1C[C@@H]1CCN(C(=O)C2CC2)C1    6.64
O=C(C1CC1)N1CC[C@@H](CN2C(=O)C3(CC3)N=C2c2ccc(-c3cccc4[nH]ncc34)cn2)C1    6.29
Cc1cc(-c2ccc3ccc(C(N)=O)nc3c2)ccc1C1=NC2(CC2)C(=O)N1CC1CN(C(=O)C2(C)CC2)C1    5.34
Cc1ccc2nc(-c3ccc(C4=NC5(CC5)C(=O)N4CC4CN(C(=O)C5CC5)C4)c(F)c3)sc2c1    6.78
O=C(C1CC1)N1CC[C@@H](CN2C(=O)C3(CC3)N=C2c2ccc(-c3ccc4sccc4c3)cn2)C1    6.71
CC(C)N1CCC2(CC1)N=C(c1ccc(-c3ccc4[nH]ccc4c3)cc1)N(C[C@@H]1CCN(C(=O)C3CC3)C1)C2=O    6.60

Alright, here's another compound for you.
Form entry - test system: Fatty Acid Synthase Keto-reductase Domain (FASN KR) (Homo sapiens, UniProt P49327); read-out: pIC50; compound: `COc1ccc2cc(-c3ccc(C4=NC5(CC5)C(=O)N4C[C@@H]4CCN(C(=O)C5(O)CC5)C4)cc3)ccc2c1`
7.33

src = patent US10077261B2
